Recorded MIC values for a group of molecules are listed next.
Tested on: Saccharomyces cerevisiae
PROCEDURE DETAILS: Antimicrobial activity against Saccharomyces cerevisiae BY4741 after 24 hrs by two fold serial dilution method
Type: functional
CONDITION INFO: BY4741, 24 h

// below: answered molecules
| MOLECULE | MIC |
| --- | --- |
| CCCCCCCC[C@H]1CC[C@@H](OC)c2[nH]c(C)c(OC)c(=O)c21 | > 32 µg/mL |
| CCCCCCCCc1ccc(OC)c2[nH]c(C)c(OC)c(=O)c12 | > 32 µg/mL |
| COc1c(C)n(OC)c2c(c1=O)[C@@H](CCCCCc1ccccc1)CCC2 | 16 µg/mL |
| CCCCCCCC[C@H]1CCC(=O)c2[nH]c(C)c(OC)c(=O)c21 | > 32 µg/mL |
| CCCCCCCC[C@H]1CCCc2c1c(=O)c(OC)c(C)n2OC | 16 µg/mL |

# lookup: CCCCCCCC[C@@H]1CCCc2c1c(=O)c(OC)c(CO)n2OC on Saccharomyces cerevisiae, MIC = > 32 µg/mL

---

Recorded MIC values for a group of compounds are listed next.
System: Candida albicans
PROCEDURE DETAILS: Antimicrobial activity against Candida albicans CAF2-1 after 24 hrs by two fold serial dilution method
Type: functional
CONDITION INFO: CAF2-1, 24 h
Write the answer as a number in µg/mL, unit excluded.

// below: answered compounds
| STRUCTURE AS SMILES | SYSTEM | RESULT UNIT | MIC |
| --- | --- | --- | --- |
| CCCCCCCCc1ccc(OC)c2[nH]c(C)c(OC)c(=O)c12 | Candida albicans | µg/mL | 8 |
| CCCCCCCC[C@H]1CCCc2c1c(=O)c(OC)c(C)n2OC | Candida albicans | µg/mL | 16 |
| COc1c(C)[nH]c2c(c1=O)[C@@H](CCCCCc1ccccc1)CC[C@H]2OC | Candida albicans | µg/mL | 32 |

# lookup: CCCCCCCC[C@H]1CC[C@@H](O)c2[nH]c(C)c(OC)c(=O)c21 on Candida albicans, MIC = 32

---

Test system: Nakaseomyces glabratus
PROCEDURE DETAILS: Antimicrobial activity against Candida glabrata after 24 hrs by two fold serial dilution method
Assay type: functional
ENDPOINT NAME: MIC

// below: answered compounds
| STRUCTURE AS SMILES | MIC |
| --- | --- |
| CCCCCCCC[C@@H]1CCCc2[nH]c(C)c(OC)c(=O)c21 | > 32 µg/mL |
| CCCCCCCC[C@H]1CC[C@@H](O)c2[nH]c(C)c(OC)c(=O)c21 | > 32 µg/mL |
| CCCCCCCC[C@H]1CC[C@@H](OC)c2[nH]c(C)c(OC)c(=O)c21 | > 32 µg/mL |
| CCCCCCCCc1ccc(OC)c2[nH]c(C)c(OC)c(=O)c12 | > 32 µg/mL |
| OC(Cn1cncn1)(Cn1cncn1)c1ccc(F)cc1F | > 128 µg/mL |
| CCCCCCCC[C@@H]1CCCc2c1c(=O)c(OC)c(CO)n2OC | > 32 µg/mL |
| CCCCCCCC[C@H]1CCC(=O)c2[nH]c(C)c(OC)c(=O)c21 | > 32 µg/mL |
| CCCCCCCC[C@@H]1CCCc2[nH]c(CO)c(OC)c(=O)c21 | > 32 µg/mL |

// field: MIC; key: COc1c(C)n(OC)c2c(c1=O)[C@@H](CCCCCc1ccccc1)CCC2 ; value = 32 µg/mL
